# System: Escherichia coli (ATCC25922) or Staphylococcus aureus (ATCC25923)
# protocolNotes: Antibacterial MIC, microdilution method in Mueller-Hinton medium
# Format: cell-based
# experimentalContext: Escherichia coli, 18 h, read-out: Potency (MIC)
reportedProperty: MIC

smilesText: NC[C@H]1[C@@H](O)CCN1c1nc(Nc2ccc(NC(=O)c3ccc4ccccc4c3O)cc2)nc(N2C[C@H](N)C[C@H](N)C2)n1
reportedProperty: MIC
reportedValue: < 16 µg/mL
//
smilesText: N[C@@H]1C[C@H](N)CN(c2nc(NCCc3ccc(Cl)cc3Cl)nc(N3C[C@H](N)C[C@H](N)C3)n2)C1
reportedProperty: MIC
reportedValue: > 64 µg/mL
//
smilesText: N[C@@H]1C[C@H](N)CN(c2nc(Nc3ccc(C(=O)CC(=O)Nc4ccccc4F)cc3)nc(N3C[C@H](N)C[C@H](N)C3)n2)C1
reportedProperty: MIC
reportedValue: < 64 µg/mL
//
smilesText: Cc1cccc(Nc2nc(N3C[C@H](N)C[C@H](N)C3)nc(N3C[C@H](N)C[C@H](N)C3)n2)n1
reportedProperty: MIC
reportedValue: > 64 µg/mL
//
smilesText: NC1CN(c2nc(Nc3ccc(NC(=O)c4ccc(Cl)cc4)c(O)c3)nc(N3C[C@H](N)C[C@H](N)C3)n2)C1
reportedProperty: MIC
reportedValue: < 16 µg/mL
//
smilesText: N[C@@H]1C[C@H](N)CN(c2nc(Nc3ccc(NC(=O)C=Cc4ccccc4)c(O)c3)nc(N3C[C@H](N)C[C@H](N)C3)n2)C1
reportedProperty: MIC
reportedValue: < 16 µg/mL
//
smilesText: N[C@@H]1C[C@H](N)CN(c2nc(Nc3ccc(C(=O)CC(=O)Nc4ccccc4Cl)cc3)nc(N3C[C@H](O)C[C@H](O)C3)n2)C1
reportedProperty: MIC
reportedValue: < 64 µg/mL
//
smilesText: NCCN(CCN)c1nc(Nc2ccc(NC(=O)c3ccc(Cl)cc3)c(O)c2)nc(N2C[C@H](N)C[C@H](N)C2)n1
reportedProperty: MIC
reportedValue: < 64 µg/mL
//
smilesText: Cc1ccc(S(=O)(=O)N(Cc2ccccc2)c2ccc(Nc3nc(N4C[C@H](N)C[C@H](N)C4)nc(N4C[C@H](O)C[C@H]4CN)n3)cc2O)cc1
reportedProperty: MIC
reportedValue: < 64 µg/mL
//
smilesText: N[C@@H]1C[C@H](N)CN(c2nc(Nc3ccc(NC(=O)c4cc(OC(F)(F)F)ccc4O)cc3)nc(N3C[C@H](N)C[C@H](N)C3)n2)C1
reportedProperty: MIC
reportedValue: < 16 µg/mL
//
smilesText: Cc1ccc(C(=O)Nc2ccc(Nc3nc(N4C[C@H](N)C[C@H](N)C4)nc(N4C[C@H](N)C[C@H](N)C4)n3)cc2O)cc1
reportedProperty: MIC
reportedValue: < 16 µg/mL
//
smilesText: CCCCC(=O)Nc1ccc(S(=O)(=O)Nc2ccc(Nc3nc(N4C[C@H](N)C[C@H](N)C4)nc(N4C[C@H](N)C[C@H](N)C4)n3)cc2O)cc1
reportedProperty: MIC
reportedValue: < 64 µg/mL
//
smilesText: COc1ccc(Nc2nc(N3C[C@H](N)C[C@H](N)C3)nc(N3C[C@H](N)C[C@H](N)C3)n2)cc1
reportedProperty: MIC
reportedValue: > 64 µg/mL
//
smilesText: COc1nc(Nc2ccc(NC(=O)c3ccc(Cl)cc3)c(O)c2)nc(N2C[C@H](N)C[C@H](N)C2)n1
reportedProperty: MIC
reportedValue: < 16 µg/mL
//
smilesText: N[C@@H]1C[C@H](N)CN(c2nc(Nc3ccc(S(=O)(=O)Nc4ccccn4)cc3)nc(N3C[C@H](N)C[C@H](N)C3)n2)C1
reportedProperty: MIC
reportedValue: > 64 µg/mL
//
smilesText: Cc1cc(Nc2nc(N3C[C@H](N)C[C@H](N)C3)nc(N3C[C@H](N)C[C@H](N)C3)n2)cc(Cl)c1NC(=O)c1ccc(Cl)cc1O
reportedProperty: MIC
reportedValue: < 16 µg/mL
//
smilesText: NC[C@@H]1C[C@H](N)CN1c1nc(Nc2ccc(NC(=O)c3ccc(O)cc3O)c(O)c2)nc(N2C[C@H](N)C[C@H](N)C2)n1
reportedProperty: MIC
reportedValue: < 16 µg/mL
//
smilesText: CCCCCCCCCC(=O)Nc1ccc(S(=O)(=O)Nc2ccc(Nc3nc(N4C[C@H](N)C[C@H](N)C4)nc(N4C[C@H](N)C[C@H](N)C4)n3)cc2O)cc1
reportedProperty: MIC
reportedValue: < 16 µg/mL
//
smilesText: N#Cc1ccc(NC(=O)c2ccc(Nc3nc(N4C[C@H](N)C[C@H](N)C4)nc(N4C[C@H](N)C[C@H](N)C4)n3)cc2O)cc1
reportedProperty: MIC
reportedValue: < 64 µg/mL
//
smilesText: Nc1ccc(Nc2nc(N3C[C@H](N)C[C@H](N)C3)nc(N3C[C@H](N)C[C@H](N)C3)n2)cc1OCc1ccccc1
reportedProperty: MIC
reportedValue: > 64 µg/mL
//
smilesText: CC(=O)c1ccc(Nc2nc(N3C[C@H](N)C[C@H](N)C3)nc(N3C[C@H](O)C[C@H]3CN)n2)cc1
reportedProperty: MIC
reportedValue: > 64 µg/mL
//
smilesText: Cc1ccc(S(=O)(=O)N(Cc2ccccc2)c2ccc(Nc3nc(N4C[C@H](N)C[C@H](N)C4)nc(N4CCC[C@@H](O)C4)n3)c(O)c2)cc1
reportedProperty: MIC
reportedValue: < 64 µg/mL
//
smilesText: Cc1ccc(C(=O)Nc2ccc(Nc3nc(N4C[C@H](N)C[C@H](N)C4)nc(N4C[C@H](N)C[C@H](N)C4)n3)cc2)c(O)c1
reportedProperty: MIC
reportedValue: < 16 µg/mL
//
smilesText: N[C@@H]1C[C@H](N)CN(c2cc(Nc3ccc(NC(=O)c4ccc5ccccc5c4O)cc3)nc(N3C[C@H](N)C[C@H](N)C3)c2)C1
reportedProperty: MIC
reportedValue: < 16 µg/mL
//
smilesText: N[C@@H]1C[C@H](N)CN(c2nc(Nc3ccc(NC(=O)c4ccc(Cl)cc4)c(O)c3)nc(N3C[C@@H](N)C[C@@H](O)C3)n2)C1
reportedProperty: MIC
reportedValue: < 16 µg/mL
//
smilesText: NC[C@@H]1C[C@@H](O)CN1c1nc(Nc2ccc(NC(=O)c3ccc4ccccc4c3O)cc2)nc(N2C[C@H](N)C[C@H](N)C2)n1
reportedProperty: MIC
reportedValue: < 64 µg/mL
//
smilesText: N[C@@H]1C[C@H](N)CN(c2nc(Nc3ccc(NC(=O)c4ccc5ccccc5c4O)cc3)nc(N3C[C@H](N)C[C@H](N)C3)n2)C1
reportedProperty: MIC
reportedValue: < 16 µg/mL
//
smilesText: CCCCCCOc1ccc(Nc2nc(N3C[C@H](N)C[C@H](N)C3)nc(N3C[C@H](N)C[C@H](N)C3)n2)cc1
reportedProperty: MIC
reportedValue: < 16 µg/mL
